System: ATP;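 also: ATP exposure 15 min at 22 °C before imaging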
Test: switch fluorescence ratio, 500 uM ATP over buffer (Cy3 cluster intensity, sum of 5 cycles each) (fold (ratio)); higher = stronger signal-on switching upon ATP binding; sequences stand for … in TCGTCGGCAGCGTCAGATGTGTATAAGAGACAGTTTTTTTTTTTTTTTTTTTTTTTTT…TC
Conditions: aptamer strand: ATP DNA aptamer (quencher-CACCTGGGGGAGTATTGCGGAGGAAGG + anchor), 100 nM annealed; ATP concentration: 500 uM
Assign switch fluorescence ratio to each entry below.
Numbers only.

Answered cases to consult:
>>> df
   biopolymer_sequence            reported_metric  recorded_measurement
0           ACATCTCGAT  switch fluorescence ratio                 0.996
1           TAATCACGAA  switch fluorescence ratio                  1.04
2           TCAAAATGCT  switch fluorescence ratio                  1.09
3           TCCGTGCGGT  switch fluorescence ratio                  1.04
4           GGAGTATTTT  switch fluorescence ratio                  1.12
5           AATGGGGGCA  switch fluorescence ratio                  1.01
6           CTGAATATTC  switch fluorescence ratio                  1.02
7           GAGGATCTTG  switch fluorescence ratio                     1
8           TAGGCCAGTA  switch fluorescence ratio                  1.02
9           TTTTAACGGC  switch fluorescence ratio                 0.971

// input: 3 sequences below; output: switch fluorescence ratio for each
1. ACTGGGTGGA
2. ATTGGGTCGG
3. CGTAGTTCGT

1. 1.02
2. 0.996
3. 1.04

Could I get switch fluorescence ratio for every one of these entries?
1. GTGTGAGGAG
2. AAGTTTCGAG
3. CGCTGGTGGG
4. TGAGAAAGGG
5. TTTTGAGATT
6. TTTGTATTTA
7. GTGGTAAAGG

1.05
0.983
1.01
0.982
0.995
1.03
0.974
